Test: A CellTox Green Cytotoxicity Assay to monitor cytotoxicity in HepG2 cells - 32 hour (AID 1224883); also: nearly all actives have a fitted effect of over 50% in size
Details: CellTox Green fluorescence; series mostly up to 76.8 µM
Records with an inconclusive call do not appear. Calls of active or inactive are those of the source. Calls follow the shape of the dose curve; as a rule, active = well fitted activation curve with a large enough effect in the repeat runs; inconclusive = weak or mixed curves; inactive = flat fitted curve, though single readings scatter.
Respond with a class label; see True for active, False for inactive

Give the logged outcome of this assay for the following molecule: C=CC(=O)OCC(C)OCC(C)OCC(C)OC(=O)C=C (configuration not stated) True

Which outcome was assigned to CCCCOC(=O)c1ccccc1C(=O)OCC(CC)CCCC (configuration not stated) in this test? False

Fill in: this test's call for `CCCCCOC(=O)COc1cc(N2C(=O)C3=C(CCCC3)C2=O)c(F)cc1Cl` is ___ False

Hi, sorry to bother you, what did the test record for `CN1CCC[C@@H]1c1cccnc1` ? False

How did this test come out for `C=Cc1c(C)c2cc3[nH]c(cc4nc(cc5nc(cc1[nH]2)C(C)=C5CCC(=O)O)C(CCC(=O)O)=C4C)c(C)c3C=C` ? False

Hi, sorry to bother you, what did the test record for `CNCC[C@@H](Oc1ccccc1C)c1ccccc1` ? False

Next:
Answer briefly: the call reported for `CCCCCCCCCCCCCCCBr` in this assay. False

Per the assay record, what outcome was assigned to CCC(=O)OC(C)(C)C1CC=C(C)CC1 (configuration not stated) ? False

Look up the recorded call for CCCCC(CC)COCCCN (configuration not stated) in this test. False

Please share the test call associated with `Cn1c(N)nc2nc[nH]c2c1=O` . False

Field: outcome | Entry: CCCCOC(O)CC (configuration not stated) False

In this assay, the call recorded for `Cc1ccc(C(N)=O)cc1N` was what? False

Fill in: this test's call for CCc1nn(C2CCCCC2)c2cc(C3(C#N)CCC(C(=O)O)CC3)ccc12 (configuration not stated) is ___ False

Would you mind telling me which call this test gave `Cc1cc(NC(=O)C(=O)O)cc(C)c1Oc1ccc(O)c2c1CCC2` ? False

Hey, what did the test say about `Cc1ccc(O)c([C@H](CCN(C(C)C)C(C)C)c2ccccc2)c1` ? True

Write down the call the test reported for this molecule. Item: `O=C(O)Cc1sc(-c2ccccc2)nc1-c1ccc(Cl)cc1` False

Outcome logged for CC(C)NCC(O)c1cc(O)cc(O)c1 (configuration not stated) in this assay: False

# fetch the recorded call for `Oc1ccc2c(c1)OCO2` here False

Name the outcome recorded for `CC1(C)[C@H]2CC[C@]1(C)[C@H](O)C2` in the assay. False

In this assay, the call recorded for `CC(C)CCCCCCOC(=O)c1ccc(C(=O)OCCCCCCC(C)C)c(C(=O)OCCCCCCC(C)C)c1` was what? False

Tell me the recorded outcome of this test for `Cc1c(Cn2ccnc2)c2ccccc2n1CCC(=O)O` . False

Fill in: this test's call for `CCOc1ccc(NC(=O)CC(C)=O)cc1` is ___ False

Identify the outcome logged in this assay for the molecule shown: `CCCCOCCOCCOCCOCCO` False

Tell me the assay call for `Cc1cc(O)ccc1N` please. False

For `CC1=CC(=O)/C(=C(/C)O)C(=O)O1` , which call appears in the assay record? False

Recorded call for `Nc1ccc(C(=O)N2CC3CC(CN(Cc4ccccc4)C3)C2)cc1` ? False

Please indicate how the test categorized `Cn1c(NCCN(CCO)CCCc2ccc([N+](=O)[O-])cc2)cc(=O)n(C)c1=O` . False

Given `CC(C)(C)c1cc(O)c(C(C)(C)C)cc1O` , state the outcome it received in this test. False

Could you please tell me the result logged for `CCCCC(CC)(CO)CO` in this assay? False

Just for reference, PubChem BioAssay (Tox21) is where these values come from.
